This collection of values is drawn from paper PMC12864922.

- system-under-test: TDP-43 (Homo sapiens, UniProt Q13148 1-414)
- Sequence (Q13148 whole entry): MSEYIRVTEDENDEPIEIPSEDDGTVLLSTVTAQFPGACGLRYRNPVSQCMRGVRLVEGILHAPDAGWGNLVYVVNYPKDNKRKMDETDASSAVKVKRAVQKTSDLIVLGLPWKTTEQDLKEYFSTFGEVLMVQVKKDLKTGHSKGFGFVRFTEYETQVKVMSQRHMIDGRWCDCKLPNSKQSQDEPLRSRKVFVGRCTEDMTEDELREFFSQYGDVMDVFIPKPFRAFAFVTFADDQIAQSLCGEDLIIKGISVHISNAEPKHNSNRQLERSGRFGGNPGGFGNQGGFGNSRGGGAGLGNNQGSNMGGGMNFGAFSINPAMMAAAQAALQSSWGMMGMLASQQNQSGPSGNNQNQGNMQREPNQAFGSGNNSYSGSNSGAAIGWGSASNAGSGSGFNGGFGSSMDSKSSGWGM
- protocol-description: RNA Bind-n-Seq with designed 260-mer pool; 25 mM Tris-HCl, 150 mM KCl, 3 mM MgCl2, BSA (printed 500 mg/mL), 20 units/mL SUPERase IN; pH not stated; 500 nM RNA pool, 1 h, 4 C; TDP-43 5, 50, 500 nM; high values mean tight binding
- experimental-parameters: protein: recombinant; tags: SBP (GST cleaved off with PreScission; pGEX-GST-SBP)
Over roughly 9,900 sequences, “r (bound/input frequency ratio)” has its median near 0.7; the highest 2% begin near 6.5. This is one part of a sample in which the highest values are shown more often than they occur.
readout-type: binding signal

// sample ENSMUSG00000022095.49|Fam160b2 (ssRNA) RNA: GGGAGUUCUACAGUCCGACGAUCGCUUCGAUAUCCGCAUGCUACCUUUUAGAGGAGCUAGAGGAUGGCCAGUGAGCGCCUAGAUGCUGCCCUGCAUGUGUUGCGUGACUAUCUCUGCUAUAUUGUGACCAGGGCCACAACAUGAGACAACUCCAGGGGCCAGGGAGAUGAACUGCUGUCUUUGAGGCUGGCUAAAAAAACAAUCCAGUCCAGAGAGAUGGGGAGGGGGGGAGCAAGAACCCUGUCUGUUACAUUAGGUAUCAUGGAAGCUGCUAAGACUCGGCAGGUUUCUCCGAGGCUUCACCUCUUGCGGUCGCACUAGUGUGGAAUUCUCGGGUGUCAAGG , its binding signal was 1.16 R (bound/input frequency ratio)
